# testedTarget: T1, human mutCALR on BaF3 cells stably expressing human MPL and human mutCALR (MPL-mutCALR cells) (human)
# T1 construct: also called mutant calreticulin
# T1 chain: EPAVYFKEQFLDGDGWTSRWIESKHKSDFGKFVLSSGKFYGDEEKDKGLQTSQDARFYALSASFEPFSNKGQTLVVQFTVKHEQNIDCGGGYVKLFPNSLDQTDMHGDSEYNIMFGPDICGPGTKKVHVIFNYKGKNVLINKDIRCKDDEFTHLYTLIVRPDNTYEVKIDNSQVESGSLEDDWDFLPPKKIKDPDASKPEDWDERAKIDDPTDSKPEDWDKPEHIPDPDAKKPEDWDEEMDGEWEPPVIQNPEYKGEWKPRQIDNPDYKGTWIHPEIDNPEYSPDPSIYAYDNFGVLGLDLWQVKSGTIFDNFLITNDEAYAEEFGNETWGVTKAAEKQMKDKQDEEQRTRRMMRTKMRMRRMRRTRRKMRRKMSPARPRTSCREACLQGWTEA
# protocolNotes: flow cytometry, BaF3 MPL-mutCALR cells
assayEndpoint: MPL-mutCALR AUC

anti-mutCALR antibody clone 132 (antibody, human IgG1, lambda, N297A, V domains shown) VH: EVQLVQSGAEVKKPGASVKVSCKVSGYTLTELSMQWVRQAPGKGLEWMGGFDPDEGETMYAEKFQGRLTVTEDTSTDTVYMELSSLRSEDTAVYFCATSPGYDFFDYWGQGTLVTVSS VL: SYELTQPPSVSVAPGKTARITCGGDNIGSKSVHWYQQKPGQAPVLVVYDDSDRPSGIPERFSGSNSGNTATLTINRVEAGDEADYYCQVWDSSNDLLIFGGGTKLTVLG ... 73400

From here, focus on the item given below.
Q) Item under review: anti-mutCALR antibody clone 7 (antibody, human IgG1, lambda, V domains shown, human IgG1) VH: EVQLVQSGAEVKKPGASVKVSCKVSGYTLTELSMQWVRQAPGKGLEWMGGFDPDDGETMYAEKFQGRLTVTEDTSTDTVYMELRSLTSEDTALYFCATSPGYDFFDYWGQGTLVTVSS VL: SYVLTQPPSVSVAPGQTASITCVGTNFGSKNVHWYQQRPGQAPVLVVYDDSDRPSGIPERFSGSNSGNTATLTINRVEAGDEADYYCQVWDSSNDLLIFGGGTKLTVLG . Reported MPL-mutCALR AUC?
A) 66800
